# test-target: T1, IL-18 binding protein (IL-18BP) (UniProt O95998 31-194)
# T1 sequence (looked up): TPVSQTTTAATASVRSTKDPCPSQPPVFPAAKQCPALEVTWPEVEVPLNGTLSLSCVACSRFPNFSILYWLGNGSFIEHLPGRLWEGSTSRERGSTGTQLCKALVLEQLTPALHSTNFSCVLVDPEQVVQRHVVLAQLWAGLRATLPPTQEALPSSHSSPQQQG
# method: cell-based or functional assay
measurement-type: Ratio (-BP/+BP), DF-25000007

# binder, Ratio (-BP/+BP), DF-25000007
rows = [
    ("IL-18 variant G3Y, E6N, N91Y, R104S (ligand) YFYKLNSKLSVIRNLNDQVLFIDQGNRPLFEDMTDSDMRDNAPRTIFIISMYKDSQPRGMAVTISVKSEKISTLSSENKIISFKEMNPPDYIKDTKSDIIFFQSSVPGHDNKMQFESSSYEGYFLASEKERDLFKLILKKEDELGDRSIMFTVQNED", 2.59),
]

API: the following record is the query input.
(Q) Using the record for IL-18 variant E6T, D54P, S55K, R104S (ligand) YFGKLTSKLSVIRNLNDQVLFIDQGNRPLFEDMTDSDMRDNAPRTIFIISMYKPKQPRGMAVTISVKSEKISTLSSENKIISFKEMNPPDNIKDTKSDIIFFQSSVPGHDNKMQFESSSYEGYFLASEKERDLFKLILKKEDELGDRSIMFTVQNED , report its Ratio (-BP/+BP), DF-25000007.
(A) 1.3
